Give Activity for every item shown.
- Tested on: 518A2
- protocol-notes: Induction of apoptosis in human 518A2 cells assessed as ROS production at 50 uM after 24 hrs by NBT reduction assay relative to control
- Type: functional

Prompt: // lookup Activity for COc1ccc(-c2c(-c3cc(OC)c(OC)c(OC)c3)ncn2C)cc1N
Response: 1.5%

Prompt: // lookup Activity for COc1ccc(-c2c(-c3cc(Cl)c(OC)c(OC)c3)ncn2C)cc1F.Cl
Response: 4.8%

Prompt: // lookup Activity for COc1ccc(-c2c(-c3cc(Br)c(OC)c(OC)c3)ncn2C)cc1N.Cl.Cl
Response: 3.8%

Prompt: // lookup Activity for COc1ccc(-c2ocnc2-c2cc(N)c(OC)c(OC)c2)cc1N.Cl
Response: 3.5%

Prompt: // lookup Activity for COc1cc(-c2ncn(C)c2-c2ccc(N(C)C)cc2)cc(Br)c1OC.Cl
Response: 6.7%

Prompt: // lookup Activity for COc1ccc(-c2c(-c3cc(Br)c(OC)c(OC)c3)ncn2C)cc1F.Cl
Response: 3.9%

Prompt: // lookup Activity for COc1cc(-c2ncn(C)c2-c2ccc(N(C)C)cc2)cc(Cl)c1OC.Cl
Response: 6%

Prompt: // lookup Activity for COc1ccc(-c2c(-c3cc(N)c(OC)c(OC)c3)ncn2C)cc1O.Cl
Response: 1.8%

Prompt: // lookup Activity for COc1cc(-c2ncn(C)c2-c2ccc3c(Cl)cn(C)c3c2)cc(N)c1OC.Cl
Response: 6.4%

Prompt: // lookup Activity for COc1ccc(-c2c(-c3cc(Cl)c(OC)c(OC)c3)ncn2C)cc1N.Cl.Cl
Response: 4.4%

Prompt: // lookup Activity for COc1ccc(-c2c(-c3cc(N)c(OC)c(OC)c3)ncn2C)cc1F.Cl
Response: 1.4%

Prompt: // lookup Activity for COc1cc(-c2ncoc2-c2ccc(N(C)C)cc2)cc(N)c1OC.Cl
Response: 3.3%

----------
- Tested on: HL-60
- protocol-notes: Cytotoxicity against human HL60 cells after 72 hrs by MTT assay
- Type: functional, cell-based
- experimental-context: HL-60, 72 h
Give pIC50 for every item shown.
# pIC50: negative log10 of molar concentration; output just the value

Prompt: // lookup pIC50 for COc1cc(-c2ncn(C)c2-c2ccc3c(Cl)cn(C)c3c2)cc(N)c1OC.Cl
Response: 10.40

Prompt: // lookup pIC50 for COc1ccc(/C=C\c2cc(OC)c(OC)c(OC)c2)cc1O
Response: 10.00

Prompt: // lookup pIC50 for COc1ccc(-c2c(-c3cc(Br)c(OC)c(OC)c3)ncn2C)cc1N.Cl.Cl
Response: 10.00

----------
- protocol-notes: Cytotoxicity against human 518A2 cells after 72 hrs by MTT assay
- Type: functional, cell-based
- experimental-context: 518A2, 72 h
Rule: IC50 below 400 nM gives TRUE. Equal to or above 400 nM gives FALSE.

Prompt: For COc1ccc(/C=C\c2cc(OC)c(OC)c(OC)c2)cc1O , is the recorded IC50 below the cut-off of 400 nM?
Response: TRUE

Prompt: For COc1ccc(-c2c(-c3cc(Cl)c(OC)c(OC)c3)ncn2C)cc1N.Cl.Cl , is the recorded IC50 below the cut-off of 400 nM?
Response: TRUE

Prompt: For COc1ccc(-c2c(-c3cc(OC)c(OC)c(OC)c3)ncn2C)cc1N , is the recorded IC50 below the cut-off of 400 nM?
Response: FALSE

Prompt: For COc1ccc(-c2c(-c3cc(N)c(OC)c(OC)c3)ncn2C)cc1O.Cl , is the recorded IC50 below the cut-off of 400 nM?
Response: FALSE

Prompt: For COc1cc(-c2ncn(C)c2-c2ccc(N(C)C)cc2)cc(Br)c1OC.Cl , is the recorded IC50 below the cut-off of 400 nM?
Response: FALSE

Prompt: For COc1ccc(-c2ocnc2-c2cc(N)c(OC)c(OC)c2)cc1N.Cl , is the recorded IC50 below the cut-off of 400 nM?
Response: TRUE

Prompt: For COc1cc(-c2ncn(C)c2-c2ccc3c(Cl)cn(C)c3c2)cc(N)c1OC.Cl , is the recorded IC50 below the cut-off of 400 nM?
Response: FALSE

Prompt: For COc1ccc(-c2c(-c3cc(Br)c(OC)c(OC)c3)ncn2C)cc1F.Cl , is the recorded IC50 below the cut-off of 400 nM?
Response: TRUE

Prompt: For COc1ccc(-c2c(-c3cc(N)c(OC)c(OC)c3)ncn2C)cc1F.Cl , is the recorded IC50 below the cut-off of 400 nM?
Response: FALSE

Prompt: For COc1cc(-c2ncn(C)c2-c2ccc(N(C)C)cc2)cc(Cl)c1OC.Cl , is the recorded IC50 below the cut-off of 400 nM?
Response: FALSE

Prompt: For COc1cc(-c2ncoc2-c2ccc(N(C)C)cc2)cc(N)c1OC.Cl , is the recorded IC50 below the cut-off of 400 nM?
Response: TRUE

Prompt: For COc1ccc(-c2c(-c3cc(Br)c(OC)c(OC)c3)ncn2C)cc1N.Cl.Cl , is the recorded IC50 below the cut-off of 400 nM?
Response: TRUE

----------
Give IC50 for every item shown.
- System: HL-60
- protocol-notes: Cytotoxicity against human HL60 cells after 72 hrs by MTT assay
- Format: functional, cell-based
- experimental-context: HL-60, 72 h
The response must be a number in nM with no trailing unit.

Prompt: Enter reported IC50 observed with HL-60 for COc1ccc(-c2c(-c3cc(Cl)c(OC)c(OC)c3)ncn2C)cc1N.Cl.Cl
Response: 0.2

Prompt: Enter reported IC50 observed with HL-60 for COc1cc(-c2ncn(C)c2-c2ccc(N(C)C)cc2)cc(Br)c1OC.Cl
Response: 0.2

Prompt: Enter reported IC50 observed with HL-60 for COc1cc(-c2ncoc2-c2ccc(N(C)C)cc2)cc(N)c1OC.Cl
Response: 0.9

Prompt: Enter reported IC50 observed with HL-60 for COc1cc(-c2ncn(C)c2-c2ccc(N(C)C)cc2)cc(Cl)c1OC.Cl
Response: 0.02

Prompt: Enter reported IC50 observed with HL-60 for COc1ccc(-c2c(-c3cc(Br)c(OC)c(OC)c3)ncn2C)cc1F.Cl
Response: 9700

Prompt: Enter reported IC50 observed with HL-60 for COc1ccc(-c2c(-c3cc(N)c(OC)c(OC)c3)ncn2C)cc1O.Cl
Response: 4600

Prompt: Enter reported IC50 observed with HL-60 for COc1ccc(-c2ocnc2-c2cc(N)c(OC)c(OC)c2)cc1N.Cl
Response: 3.8
